Below, each entry is listed with its recorded residual activity.
target: UniProt P07332; assay: radiometric filter-binding kinase assay, Kinase HotSpot; conditions: compound 0.5 µM; ATP 10 µM
Sequence (P07332 whole entry, looked up): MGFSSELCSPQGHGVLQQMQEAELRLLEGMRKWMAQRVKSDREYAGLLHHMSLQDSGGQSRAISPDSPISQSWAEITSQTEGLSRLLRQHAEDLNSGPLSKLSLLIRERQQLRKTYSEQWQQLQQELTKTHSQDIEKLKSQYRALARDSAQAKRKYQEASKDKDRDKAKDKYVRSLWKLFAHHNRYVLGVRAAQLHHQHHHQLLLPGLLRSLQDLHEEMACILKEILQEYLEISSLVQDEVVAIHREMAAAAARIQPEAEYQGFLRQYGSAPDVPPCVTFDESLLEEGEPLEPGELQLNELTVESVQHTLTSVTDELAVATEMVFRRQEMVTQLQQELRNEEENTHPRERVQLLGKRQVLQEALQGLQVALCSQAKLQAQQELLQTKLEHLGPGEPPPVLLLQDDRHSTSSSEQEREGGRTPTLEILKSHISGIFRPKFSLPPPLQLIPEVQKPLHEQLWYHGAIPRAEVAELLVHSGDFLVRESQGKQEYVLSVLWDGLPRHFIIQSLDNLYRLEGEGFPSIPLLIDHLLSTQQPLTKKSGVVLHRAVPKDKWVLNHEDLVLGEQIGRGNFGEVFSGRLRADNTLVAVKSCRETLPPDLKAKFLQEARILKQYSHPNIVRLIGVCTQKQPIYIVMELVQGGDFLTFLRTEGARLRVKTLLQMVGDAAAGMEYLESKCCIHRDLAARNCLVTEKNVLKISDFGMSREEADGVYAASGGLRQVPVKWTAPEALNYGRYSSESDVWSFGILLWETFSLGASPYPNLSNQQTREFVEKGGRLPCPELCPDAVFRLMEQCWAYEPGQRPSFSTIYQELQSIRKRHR
measure_name: residual activity (%)

Cc1ccc(NC2=CC(=O)c3sc(C)nc3C2=O)cc1    101
CCOC(=O)c1c(C)[nH]c(/C=C2\C(=O)Nc3ccccc32)c1C    99.3
O=C1NC(=O)C(c2cn(CCCn3ccnc3)c3ccccc23)=C1Nc1ccccc1    103
CC[n+]1c(/C=C/N(C)c2ccccc2)n(-c2ccccc2)c2ccc(-c3nc4ccccc4s3)cc21    101
O=C(Nc1cccc(Nc2nccc(Nc3cccc(C(F)(F)F)c3)n2)c1)C1CC1    94.3
c1ccc(-c2n[nH]cc2-c2ccnc3ccccc23)nc1    111
Nc1ncnc2c1c(-c1ccc(Oc3ccccc3)cc1)cn2C1CCCC1    94.9
Cc1ccc(S(=O)(=O)/C=C/C#N)cc1    100
COc1cc2ncnc(Nc3cccc(Cl)c3)c2cc1OC    104
CC#CC(=O)Nc1cc2c(Nc3ccc(F)c(Cl)c3)ncnc2cn1    99.4
CO[C@H]1CC2CC[C@@H](C)[C@@](O)(O2)C(=O)C(=O)N2CCCC[C@H]2C(=O)OC([C@H](C)C[C@@H]2CC[C@@H](O)[C@H](OC)C2)CC(=O)[C@H](C)/C=C(\C)[C@@H](O)[C@@H](OC)C(=O)[C@H](C)C[C@H](C)/C=C/C=C/C=C/1C (stereo partly drawn)    108
CCC(=O)Nc1ccc2ncnc(Nc3cccc(Br)c3)c2c1    102
O=c1cc(N2CCOCC2)oc2c1ccc1ccccc12    100
O=S(=O)(c1cccc2cnccc12)N1CCCNCC1    121
O=C1NC(=O)c2c1c1c3ccccc3n3c1c1c2c2ccccc2n1C1CCC3O1    42.1
COc1ccc2c(c[n+](C)c3c4cc5c(cc4ccc23)OCO5)c1OC    108
c1ccc(-c2n[nH]c3c2oc2ccccc23)cc1    114
O=C1NC(=O)/C(=C/c2ccc3c(c2)OC(F)(F)O3)S1    98.3
CCCC(=O)Oc1ccc2[nH]c(C(=O)c3cc4ccccc4[nH]3)cc2c1    97.8
CNc1cc2c(Nc3cccc(Br)c3)ncnc2cn1    96.9
CC(C)N(CCC(=O)c1ccc2ccccc2c1)Cc1ccccc1    92.7
CC(=O)c1ccc(N2CCOCC2)cc1O    100
Nc1ncnc2[nH]nc(Nc3ccc(F)cc3)c12    100
Nc1ccc2ncnc(NCCc3ccc(Oc4ccccc4)cc3)c2c1    99.6
CCN(CC)CCNC(=O)c1c(C)[nH]c(/C=C2\C(=O)Nc3ccc(Cl)cc32)c1C    22.1
Oc1cccc(-c2nc(N3CCOCC3)c3oc4ncccc4c3n2)c1    98.8
N#CC(C#N)=C(N)/C(C#N)=C/c1ccc(O)cc1    101
CCN(CC)C(=O)c1ccc(Nc2nc(OCC3CCCCC3)c3nc[nH]c3n2)cc1    63.2
Nc1cccc(-c2cc3c(Oc4cccc(O)c4)ncnc3[nH]2)c1    73.8
O=C1Nc2ccc(Cl)cc2/C1=C/c1cc(Cl)c(O)c(Cl)c1    93.7
CNC(=O)c1cc(Oc2ccc(NC(=O)Nc3ccc(Cl)c(C(F)(F)F)c3)cc2)ccn1    104
Cc1[nH]c(/C=C2\C(=O)Nc3ccc(S(=O)(=O)N(C)c4cccc(Cl)c4)cc32)c(C)c1C(=O)N1CCN(C)CC1    96
N#C/C(=C(/N)Sc1ccc(N)cc1)c1ccccc1C(F)(F)F    98

* * *

Parameter residual activity: see the listing below.
target: LIMK1 (human) (UniProt P53667); experiment: radiometric filter-binding kinase assay, Kinase HotSpot; details: compound 0.5 µM; ATP 10 µM
Sequence (P53667 whole entry, looked up): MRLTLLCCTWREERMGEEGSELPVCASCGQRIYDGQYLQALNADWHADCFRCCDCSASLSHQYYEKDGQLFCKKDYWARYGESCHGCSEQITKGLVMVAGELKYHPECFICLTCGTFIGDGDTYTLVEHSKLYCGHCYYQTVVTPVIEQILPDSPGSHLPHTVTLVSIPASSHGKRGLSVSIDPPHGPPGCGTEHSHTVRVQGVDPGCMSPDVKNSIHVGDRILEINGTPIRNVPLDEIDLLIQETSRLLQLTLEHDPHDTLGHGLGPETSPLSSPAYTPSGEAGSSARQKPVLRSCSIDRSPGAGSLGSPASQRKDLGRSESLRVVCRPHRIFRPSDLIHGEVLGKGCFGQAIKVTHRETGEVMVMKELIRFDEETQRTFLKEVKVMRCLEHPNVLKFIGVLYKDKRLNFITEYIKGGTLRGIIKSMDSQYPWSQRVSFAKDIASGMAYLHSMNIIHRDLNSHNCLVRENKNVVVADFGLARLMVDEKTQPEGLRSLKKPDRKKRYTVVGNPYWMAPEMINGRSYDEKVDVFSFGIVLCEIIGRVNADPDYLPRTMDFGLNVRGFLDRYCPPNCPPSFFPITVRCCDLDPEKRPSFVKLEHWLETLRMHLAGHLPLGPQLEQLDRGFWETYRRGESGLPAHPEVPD
measure_name: residual activity

CCOC(=O)c1c(C)[nH]c(/C=C2\C(=O)Nc3ccccc32)c1C    81.3%
CCN(CC)CCNC(=O)c1c(C)[nH]c(/C=C2\C(=O)Nc3ccc(F)cc32)c1C    94.3%
O=C1NC(=O)C(c2cn(CCCn3ccnc3)c3ccccc23)=C1Nc1ccccc1    83.8%
Cc1ccc(NC2=CC(=O)c3sc(C)nc3C2=O)cc1    104%
O=c1cc(N2CCOCC2)oc2c1ccc1ccccc12    98%
COc1ccc(COc2ccc(Cc3cnc(N)nc3N)cc2OC)cc1    94.5%

* * *

target: ERBB2 (human); assay: radiometric filter-binding kinase assay, Kinase HotSpot; conditions: compound 0.5 µM; ATP 10 µM
residual activity: recorded values
measure_name: residual activity (%)

COc1cc2ncnc(Nc3cccc(Cl)c3)c2cc1OC    22.5
CC[n+]1c(/C=C/N(C)c2ccccc2)n(-c2ccccc2)c2ccc(-c3nc4ccccc4s3)cc21    92
CCN(CC)CCNC(=O)c1c(C)[nH]c(/C=C2\C(=O)Nc3ccc(Cl)cc32)c1C    102
CCN(CC)C(=O)c1ccc(Nc2nc(OCC3CCCCC3)c3nc[nH]c3n2)cc1    99.4
O=C(Nc1cccc(Nc2nccc(Nc3cccc(C(F)(F)F)c3)n2)c1)C1CC1    93.8

* * *

molecular target: UniProtKB P11309; experiment: radiometric filter-binding kinase assay, Kinase HotSpot; conditions: compound 0.5 µM; ATP 10 µM
Sequence (P11309 whole entry, looked up): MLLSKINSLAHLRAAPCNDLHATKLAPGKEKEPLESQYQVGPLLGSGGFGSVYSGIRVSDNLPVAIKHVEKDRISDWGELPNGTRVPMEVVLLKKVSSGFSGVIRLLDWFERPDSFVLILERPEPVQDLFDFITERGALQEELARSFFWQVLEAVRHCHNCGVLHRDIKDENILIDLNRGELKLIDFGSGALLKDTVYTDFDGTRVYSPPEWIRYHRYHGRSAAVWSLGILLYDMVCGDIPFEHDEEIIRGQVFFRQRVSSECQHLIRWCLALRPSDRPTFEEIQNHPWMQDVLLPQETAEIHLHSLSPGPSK
Form field: residual activity (one value per entry).
measure_name: residual activity (%)

CCCC(=O)Oc1ccc2[nH]c(C(=O)c3cc4ccccc4[nH]3)cc2c1    100
c1ccc(-c2n[nH]cc2-c2ccnc3ccccc23)nc1    107
O=C1Nc2ccc(Cl)cc2/C1=C/c1cc(Cl)c(O)c(Cl)c1    19.4
N#CC(C#N)=C(N)/C(C#N)=C/c1ccc(O)cc1    103
Nc1ccc2ncnc(NCCc3ccc(Oc4ccccc4)cc3)c2c1    102
COc1cc2ncnc(Nc3cccc(Cl)c3)c2cc1OC    91.5
c1ccc(-c2n[nH]c3c2oc2ccccc23)cc1    83.3
CCN(CC)CCNC(=O)c1c(C)[nH]c(/C=C2\C(=O)Nc3ccc(Cl)cc32)c1C    91.7
CO[C@H]1CC2CC[C@@H](C)[C@@](O)(O2)C(=O)C(=O)N2CCCC[C@H]2C(=O)OC([C@H](C)C[C@@H]2CC[C@@H](O)[C@H](OC)C2)CC(=O)[C@H](C)/C=C(\C)[C@@H](O)[C@@H](OC)C(=O)[C@H](C)C[C@H](C)/C=C/C=C/C=C/1C (stereo not given in full)    104
Oc1cccc(-c2nc(N3CCOCC3)c3oc4ncccc4c3n2)c1    91.2
CC(=O)c1ccc(N2CCOCC2)cc1O    97.2
O=C1NC(=O)c2c1c1c3ccccc3n3c1c1c2c2ccccc2n1C1CCC3O1    0.435
CNC(=O)c1cc(Oc2ccc(NC(=O)Nc3ccc(Cl)c(C(F)(F)F)c3)cc2)ccn1    97.1
O=S(=O)(c1cccc2cnccc12)N1CCCNCC1    77
Cc1ccc(Nc2nccc(N(C)c3ccc4c(C)n(C)nc4c3)n2)cc1S(N)(=O)=O    100
COc1ccc2c(c[n+](C)c3c4cc5c(cc4ccc23)OCO5)c1OC    97
CCN(CC)CCNC(=O)c1c(C)[nH]c(/C=C2\C(=O)Nc3ccc(F)cc32)c1C    94.4
CC[n+]1c(/C=C/N(C)c2ccccc2)n(-c2ccccc2)c2ccc(-c3nc4ccccc4s3)cc21    102
N#C/C(=C(/N)Sc1ccc(N)cc1)c1ccccc1C(F)(F)F    99.7
O=C1NC(=O)/C(=C/c2ccc3c(c2)OC(F)(F)O3)S1    35.9

* * *

target: MUSK (human); assay: radiometric filter-binding kinase assay, Kinase HotSpot; conditions: compound 0.5 µM; ATP 10 µM
Could you please mark Yes for values of residual activity below 90% and No for values at or above it?

Cc1ccc(Nc2nccc(N(C)c3ccc4c(C)n(C)nc4c3)n2)cc1S(N)(=O)=O    No
Nc1ncnc2[nH]nc(Nc3ccc(F)cc3)c12    No
O=C(Nc1cccc(Nc2nccc(Nc3cccc(C(F)(F)F)c3)n2)c1)C1CC1    No
CCN(CC)CCNC(=O)c1c(C)[nH]c(/C=C2\C(=O)Nc3ccc(Cl)cc32)c1C    Yes
CCN(CC)C(=O)c1ccc(Nc2nc(OCC3CCCCC3)c3nc[nH]c3n2)cc1    Yes

* * *

Readings of residual activity for the listed molecules
target: RPS6KA2 KD1 KD2 (human) (UniProt Q15349); assay: radiometric filter-binding kinase assay, Kinase HotSpot; conditions: compound 0.5 µM; ATP 10 µM
Sequence (Q15349 whole entry, looked up): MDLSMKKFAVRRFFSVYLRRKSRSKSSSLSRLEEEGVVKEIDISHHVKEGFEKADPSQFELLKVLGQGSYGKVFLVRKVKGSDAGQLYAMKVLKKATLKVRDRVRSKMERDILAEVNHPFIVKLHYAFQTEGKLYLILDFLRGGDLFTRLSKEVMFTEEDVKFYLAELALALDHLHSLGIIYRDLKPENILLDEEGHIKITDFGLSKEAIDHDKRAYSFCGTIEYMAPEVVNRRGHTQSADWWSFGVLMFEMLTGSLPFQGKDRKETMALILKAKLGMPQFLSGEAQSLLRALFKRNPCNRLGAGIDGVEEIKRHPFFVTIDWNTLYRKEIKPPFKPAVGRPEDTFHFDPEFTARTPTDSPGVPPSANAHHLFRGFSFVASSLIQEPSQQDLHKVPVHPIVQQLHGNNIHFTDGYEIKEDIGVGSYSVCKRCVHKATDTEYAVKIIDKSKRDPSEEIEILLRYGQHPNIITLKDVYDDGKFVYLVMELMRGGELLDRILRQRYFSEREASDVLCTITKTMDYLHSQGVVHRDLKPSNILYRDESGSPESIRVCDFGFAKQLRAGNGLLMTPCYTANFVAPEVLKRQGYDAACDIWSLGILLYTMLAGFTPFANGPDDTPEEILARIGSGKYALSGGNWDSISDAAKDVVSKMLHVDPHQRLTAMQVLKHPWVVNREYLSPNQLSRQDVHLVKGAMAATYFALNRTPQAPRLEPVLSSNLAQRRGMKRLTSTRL
measure_name: residual activity (%)

O=S(=O)(c1cccc2cnccc12)N1CCCNCC1    79.9
Cc1[nH]c(/C=C2\C(=O)Nc3ccc(S(=O)(=O)N(C)c4cccc(Cl)c4)cc32)c(C)c1C(=O)N1CCN(C)CC1    75.4
O=C1NC(=O)c2c1c1c3ccccc3n3c1c1c2c2ccccc2n1C1CCC3O1    1.33
Nc1cccc(-c2cc3c(Oc4cccc(O)c4)ncnc3[nH]2)c1    91.5
CCN(CC)CCNC(=O)c1c(C)[nH]c(/C=C2\C(=O)Nc3ccc(F)cc32)c1C    17.3
CNc1cc2c(Nc3cccc(Br)c3)ncnc2cn1    83.5
Cc1ccc(S(=O)(=O)/C=C/C#N)cc1    100
CCC(=O)Nc1ccc2ncnc(Nc3cccc(Br)c3)c2c1    87.2
CO[C@H]1CC2CC[C@@H](C)[C@@](O)(O2)C(=O)C(=O)N2CCCC[C@H]2C(=O)OC([C@H](C)C[C@@H]2CC[C@@H](O)[C@H](OC)C2)CC(=O)[C@H](C)/C=C(\C)[C@@H](O)[C@@H](OC)C(=O)[C@H](C)C[C@H](C)/C=C/C=C/C=C/1C (some centres undefined)    89.5
